List of cell viability values.
# Test system: PDC-DUC18828
# TEST DESCRIPTION: cell viability relative to DMSO control (compound alone) (fraction); PDC-DUC18828 is a patient-derived cholangiocarcinoma cell line; higher = less growth inhibition
# EXPERIMENTAL CONTEXT: 1 µM; 72 h
In all, about 2,000 compounds were measured (“cell viability relative to DMSO control (compound alone)”: median about 0.98, lowest 2% from about 0.23 on). The sample as a whole holds a higher share of the lowest values than the screen did.

Here is how some compounds turned out for cell viability.
# STRUCTURE STRING, cell viability
rows = [
    ("Cc1ccc(C(=O)Cn2c3c(sc2=N)CCCC3)cc1", 1.01),
    ("Cc1cc(C(N)=O)ccc1-n1c(CCC(=O)O)ccc1-c1ccc(-n2ccnc2)cc1", 0.998),
    ("CC(C)N(CCCNC(=O)Nc1ccc(C(C)(C)C)cc1)C[C@H]1O[C@@H](n2ccc3c(N)ncnc32)[C@H](O)[C@@H]1O", 0.978),
    ("CCCCCCCCCCCCc1ccc(S(=O)(=O)Nc2nncs2)cc1", 0.987),
]

Q: # input compound: "CC(C)(Cc1ccc2ccccc2c1)NC[C@@H](O)COc1cccc(Cl)c1C#N" ; wanted: its cell viability
A: 1

Q: # input compound: "Cn1nccc1Nc1nccc(-c2ccn([C@H](CO)c3ccc(Cl)c(F)c3)c(=O)c2)n1" ; wanted: its cell viability
A: 1
